TARGET_OR_TEST_SYSTEM: Vasopressin V1a/V2 (Homo sapiens) (UniProt P30518+P37288)
Sequence (P30518 whole entry, looked up): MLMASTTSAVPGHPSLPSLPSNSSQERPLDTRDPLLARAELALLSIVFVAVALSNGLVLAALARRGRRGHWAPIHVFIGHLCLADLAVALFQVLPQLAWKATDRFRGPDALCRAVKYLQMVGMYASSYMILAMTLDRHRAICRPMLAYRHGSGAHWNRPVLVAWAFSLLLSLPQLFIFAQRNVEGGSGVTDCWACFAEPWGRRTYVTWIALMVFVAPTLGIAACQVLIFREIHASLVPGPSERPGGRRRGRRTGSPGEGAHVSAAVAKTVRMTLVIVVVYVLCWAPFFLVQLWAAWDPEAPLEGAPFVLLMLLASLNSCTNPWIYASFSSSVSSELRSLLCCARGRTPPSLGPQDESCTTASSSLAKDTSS
Sequence (P37288 whole entry, looked up): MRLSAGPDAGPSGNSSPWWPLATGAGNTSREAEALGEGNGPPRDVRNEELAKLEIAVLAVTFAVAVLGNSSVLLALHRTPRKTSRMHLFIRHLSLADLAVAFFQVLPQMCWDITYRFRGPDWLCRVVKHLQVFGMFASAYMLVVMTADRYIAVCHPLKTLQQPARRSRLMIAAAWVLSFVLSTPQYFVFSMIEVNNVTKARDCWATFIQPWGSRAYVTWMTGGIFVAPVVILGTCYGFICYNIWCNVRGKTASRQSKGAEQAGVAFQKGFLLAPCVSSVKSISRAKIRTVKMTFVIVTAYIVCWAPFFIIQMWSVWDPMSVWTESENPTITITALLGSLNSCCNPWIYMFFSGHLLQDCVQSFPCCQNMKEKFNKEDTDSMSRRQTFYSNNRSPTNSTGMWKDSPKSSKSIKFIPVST
METHOD_NOTES: Selectivity ratio of EC50 for human vasopressin V2 receptor to EC50 for human vasopressin V1a receptor
Bridge positions count the residues as written; N and C are the ends. Square brackets hold non-standard residues; d marks the D form. Peptide text beside a SMILES is read from it. * marks the point of attachment. Orn(iPr) = CC(C)NCCC[C@H](N)C(=O)O; 3Thi = N[C@@H](Cc1ccsc1)C(=O)O; Orn = NCCC[C@H](N)C(=O)O; NHOH = ON*
VALUE_TYPE: Ratio EC50

>  <COMPOUND>
CC[C@H](C)[C@@H]1NC(=O)[C@H](Cc2ccccc2)NC(=O)[C@@H](N)CSSC[C@@H](C(=O)N2CCC[C@H]2C(=O)N[C@@H](CCCNC(C)C)C(=O)NCC(N)=O)NC(=O)[C@H](CC(N)=O)NC(=O)[C@H](CCC(N)=O)NC1=O (H-CFIQNCP[Orn(iPr)]G-NH2; disulfide 1-6)

>  <LT_GT_EQ>
=

>  <OBSERVED_RESULT>
760

$$$$
>  <COMPOUND>
CC[C@H](C)[C@@H]1NC(=O)[C@H](Cc2ccccc2)NC(=O)[C@@H](N)CSSC[C@@H](C(=O)N2CCC[C@H]2C(=O)N[C@@H](CCCN)C(=O)NCC(N)=O)NC(=O)[C@H](CC(N)=O)NC(=O)[C@H](CCC(=O)NO)NC1=O (H-CFIE(NHOH)NCP[Orn]G-NH2; disulfide 1-6)

>  <LT_GT_EQ>
=

>  <OBSERVED_RESULT>
14

$$$$
>  <COMPOUND>
CC[C@H](C)[C@@H]1NC(=O)[C@H](Cc2ccsc2)NC(=O)[C@@H](N)CSSC[C@@H](C(=O)N2CCC[C@H]2C(=O)N[C@@H](CCCN)C(=O)NCC(N)=O)NC(=O)[C@H](CC(N)=O)NC(=O)[C@H](CC(N)=O)NC1=O (H-C[3Thi]INNCP[Orn]G-NH2; disulfide 1-6)

>  <LT_GT_EQ>
>

>  <OBSERVED_RESULT>
1300

$$$$
